Listing: drug sensitivity score of selected compounds
Test system: Bowes
protocol: drug sensitivity score (DSS) (DSS (unitless, 0-50 scale)); higher = more sensitive (stronger viability inhibition); extreme values may be limits of the assay
testConditions: 72 h; culture: 2D
Kindly provide the number alone.

O=S(=O)(c1cccc2c(O)nccc12)N1CCCNCC1 [Hydroxyfasudil] :: 0
COc1cc2c(Oc3ccc4[nH]c(C)cc4c3F)ncnc2cc1OCCCN1CCCC1 :: 1.7
COc1c(OCCCN2CCOCC2)ccc2c1N=C(NC(=O)c1cnc(N)nc1)N1CCN=C21 :: 8.3

The record that follows has no drug sensitivity score shown yet.
Quick note, drug sensitivity score for `CC(C)Oc1ccc(-c2nn([C@@H](C)c3oc4ccc(F)cc4c(=O)c3-c3cccc(F)c3)c3ncnc(N)c23)cc1F` landed at 0.9
